target: HLA-A*02:01 (Homo sapiens, UniProt P04439, D140Y/D185E/D98H/E176V/E277Q/G131W/G231S/I119V/I121R/I166T/I218V/L300P/L318F/N151K/N90K/P208A/P217A/Q86G/Q94H/R138H/R169H/T345S); assay: MHC binding assay (UV-ligand exchange, beta2m ELISA); details: binding to HLA-A*02:01 ranged by peptide exchange yield (UV-ligand exchange, β2m ELISA)
ASSAY_METRIC: Peptide exchange

Consider the reported Peptide exchange for these substances:
SUBSTANCE | Peptide exchange
570 (ALANQIPTV; listed as Homo sapiens) [compound 570] | “++” (≥20% = ++)
87 (ALPEAPAPLLPHIT; listed as Homo sapiens) [compound 87] | “++” (≥20% = ++)
235 (YLNDLHEVLL; listed as Homo sapiens) [compound 235] | “++++” (≥75% = ++++)
621 (VLMDRLPSLL; listed as Homo sapiens) [compound 621] | “++++” (≥75% = ++++)
181 (LLWAGTAFQV; listed as Homo sapiens) [compound 181] | “+++” (≥50 = +++)
377 (FLLDSSASV; listed as Homo sapiens) [compound 377] | “++” (≥20% = ++)

Give the value of Peptide exchange reported for the following: 551 (KLYESLLPFA; listed as Homo sapiens) [compound 551]
“+++” (≥50 = +++)

Give the value of Peptide exchange reported for the following: 366 (RLLDMGETDLML; listed as Homo sapiens) [compound 366]
“+++” (≥50 = +++)

Give the value of Peptide exchange reported for the following: 322 (TLMTSLPAL; listed as Homo sapiens) [compound 322]
“+++” (≥50 = +++)

Give the value of Peptide exchange reported for the following: 298 (VMITKLVEV; listed as Homo sapiens) [compound 298]
“+++” (≥50 = +++)

Give the value of Peptide exchange reported for the following: 515 (LLQELVLFL; listed as Homo sapiens) [compound 515]
“+++” (≥50 = +++)

Give the value of Peptide exchange reported for the following: 96 (YIFTDNPAAV; listed as Homo sapiens) [compound 96]
“+++” (≥50 = +++)

Give the value of Peptide exchange reported for the following: 622 (RLLGEEVVRVLQA; listed as Homo sapiens) [compound 622]
“+++” (≥50 = +++)

Give the value of Peptide exchange reported for the following: 439 (YLLQEIYGI; listed as Homo sapiens) [compound 439]
“+++” (≥50 = +++)

====

Biological target: HLA-A*02:01 (Homo sapiens, UniProt P04439, D140Y/D185E/D98H/E176V/E277Q/G131W/G231S/I119V/I121R/I166T/I218V/L300P/L318F/N151K/N90K/P208A/P217A/Q86G/Q94H/R138H/R169H/T345S)
Assay: MHC binding assay (UV-ligand exchange, beta2m ELISA)
Details: binding to HLA-A*02:01 ranged by peptide exchange yield (UV-ligand exchange, β2m ELISA)
Source text: Candidate peptides for T cell based therapies according to the present invention were further tested for their MHC binding capacity (affinity). The individual peptide-MHC complexes were produced by UV-ligand exchange, where a UV-sensitive peptide is cleaved upon UV-irradiation, and exchanged with the peptide of interest as analyzed. Only peptide candidates that can effectively bind and stabilize the peptide-receptive MHC molecules prevent dissociation of the MHC complexes. […]
ASSAY_METRIC: Peptide exchange

Consider the reported Peptide exchange for these substances:
SUBSTANCE | Peptide exchange
78 (SLFSSLEPQIQPV; listed as Homo sapiens) [compound 78] | “+++” (≥50 = +++)
177 (YLLPEEYTSTL; listed as Homo sapiens) [compound 177] | “++++” (≥75% = ++++)
382 (ALQNYIKEA; listed as Homo sapiens) [compound 382] | “++” (≥20% = ++)
541 (SMLEPVPEL; listed as Homo sapiens) [compound 541] | “+++” (≥50 = +++)
436 (HLAEVSAEV; listed as Homo sapiens) [compound 436] | “+++” (≥50 = +++)
476 (ALMERTGYSMV; listed as Homo sapiens) [compound 476] | “+++” (≥50 = +++)
510 (KLYSVVSQL; listed as Homo sapiens) [compound 510] | “++” (≥20% = ++)
331 (KVDTVWVNV; listed as Homo sapiens) [compound 331] | “+++” (≥50 = +++)
359 (YLLPESVDL; listed as Homo sapiens) [compound 359] | “+++” (≥50 = +++)
543 (GLLPTPITQQASL; listed as Homo sapiens) [compound 543] | “+++” (≥50 = +++)

Give the value of Peptide exchange reported for the following: 254 (TLLAFIMEL; listed as Homo sapiens) [compound 254]
“+++” (≥50 = +++)

Give the value of Peptide exchange reported for the following: 506 (KLLGKVETA; listed as Homo sapiens) [compound 506]
“+++” (≥50 = +++)

Give the value of Peptide exchange reported for the following: 212 (ALWDQDNLSV; listed as Homo sapiens) [compound 212]
“++” (≥20% = ++)

Give the value of Peptide exchange reported for the following: 371 (FLQAHLHTA; listed as Homo sapiens) [compound 371]
“++++” (≥75% = ++++)

Give the value of Peptide exchange reported for the following: 428 (KLGHTDILVGV; listed as Homo sapiens) [compound 428]
“++” (≥20% = ++)

====

target: HLA-A*02:01 (Homo sapiens, UniProt P04439, D140Y/D185E/D98H/E176V/E277Q/G131W/G231S/I119V/I121R/I166T/I218V/L300P/L318F/N151K/N90K/P208A/P217A/Q86G/Q94H/R138H/R169H/T345S); assay: MHC binding assay (UV-ligand exchange, beta2m ELISA); conditions: binding to HLA-A*02:01 ranged by peptide exchange yield (UV-ligand exchange, β2m ELISA)
ASSAY_METRIC: Peptide exchange

Consider the reported Peptide exchange for these substances:
SUBSTANCE | RESULT
433 (AMLNEPWAV; listed as Homo sapiens) [compound 433] | “+++” (≥50 = +++)
239 (AAFAGKLLSV; listed as Homo sapiens) [compound 239] | “+++” (≥50 = +++)
300 (ALLGQTFSL; listed as Homo sapiens) [compound 300] | “+++” (≥50 = +++)
296 (FMEGAIIYV; listed as Homo sapiens) [compound 296] | “+++” (≥50 = +++)
286 (YLFPGIPEL; listed as Homo sapiens) [compound 286] | “+++” (≥50 = +++)
224 (TLIDAQWVL; listed as Homo sapiens) [compound 224] | “+++” (≥50 = +++)

Give the value of Peptide exchange reported for the following: 107 (FLQPVDDTQHL; listed as Homo sapiens) [compound 107]
“+++” (≥50 = +++)

Give the value of Peptide exchange reported for the following: 448 (NLLETKLQL; listed as Homo sapiens) [compound 448]
“+++” (≥50 = +++)

Give the value of Peptide exchange reported for the following: 42 (VLLQKIVSA; listed as Homo sapiens) [compound 42]
“+++” (≥50 = +++)

====

Biological target: HLA-A*02:01 (Homo sapiens, UniProt P04439, D140Y/D185E/D98H/E176V/E277Q/G131W/G231S/I119V/I121R/I166T/I218V/L300P/L318F/N151K/N90K/P208A/P217A/Q86G/Q94H/R138H/R169H/T345S)
Assay: MHC binding assay (UV-ligand exchange, beta2m ELISA)
Details: binding to HLA-A*02:01 ranged by peptide exchange yield (UV-ligand exchange, β2m ELISA)
Source text: Candidate peptides for T cell based therapies according to the present invention were further tested for their MHC binding capacity (affinity). The individual peptide-MHC complexes were produced by UV-ligand exchange, where a UV-sensitive peptide is cleaved upon UV-irradiation, and exchanged with the peptide of interest as analyzed. Only peptide candidates that can effectively bind and stabilize the peptide-receptive MHC molecules prevent dissociation of the MHC complexes. […]
ASSAY_METRIC: Peptide exchange

SUBSTANCE | Peptide exchange
248 (FLFPNQYVDV; listed as Homo sapiens) [compound 248] | “+++” (≥50 = +++)
426 (RLADKSVLV; listed as Homo sapiens) [compound 426] | “+++” (≥50 = +++)
584 (ALAEVAAMENV; listed as Homo sapiens) [compound 584] | “+++” (≥50 = +++)
388 (SLTIDGIRYV; listed as Homo sapiens) [compound 388] | “+++” (≥50 = +++)
221 (ALYEEGLLL; listed as Homo sapiens) [compound 221] | “++” (≥20% = ++)
358 (ALDEYTSEL; listed as Homo sapiens) [compound 358] | “++++” (≥75% = ++++)
264 (SLQEQLHSV; listed as Homo sapiens) [compound 264] | “+++” (≥50 = +++)
464 (ALNDCIYSV; listed as Homo sapiens) [compound 464] | “+++” (≥50 = +++)

Give the value of Peptide exchange reported for the following: 20 (RMIEYFIDV; listed as Homo sapiens) [compound 20]
“+++” (≥50 = +++)

Give the value of Peptide exchange reported for the following: 301 (FLVEDLVDSL; listed as Homo sapiens) [compound 301]
“+++” (≥50 = +++)

Give the value of Peptide exchange reported for the following: 467 (FLAKDFNFL; listed as Homo sapiens) [compound 467]
“+++” (≥50 = +++)

Give the value of Peptide exchange reported for the following: 234 (ALMEDTGRQML; listed as Homo sapiens) [compound 234]
“++” (≥20% = ++)

Give the value of Peptide exchange reported for the following: 575 (YLISQVEGHQV; listed as Homo sapiens) [compound 575]
“+++” (≥50 = +++)

Give the value of Peptide exchange reported for the following: 270 (LLLDEEGTFSL; listed as Homo sapiens) [compound 270]
“++” (≥20% = ++)

Give the value of Peptide exchange reported for the following: 17 (GLLPGDRLVSV; listed as Homo sapiens) [compound 17]
“+++” (≥50 = +++)

Give the value of Peptide exchange reported for the following: 127 (KIGDEPPKV; listed as Homo sapiens) [compound 127]
“++” (≥20% = ++)

Give the value of Peptide exchange reported for the following: 393 (GLLDTQTSQVLTA; listed as Homo sapiens) [compound 393]
“++” (≥20% = ++)

Give the value of Peptide exchange reported for the following: 327 (GLAPFTEGISFV; listed as Homo sapiens) [compound 327]
“+++” (≥50 = +++)

Give the value of Peptide exchange reported for the following: 346 (LLDSKVPSV; listed as Homo sapiens) [compound 346]
“+++” (≥50 = +++)

Give the value of Peptide exchange reported for the following: 265 (LLFGGTKTV; listed as Homo sapiens) [compound 265]
“++” (≥20% = ++)

Give the value of Peptide exchange reported for the following: 305 (SIANFSEFYV; listed as Homo sapiens) [compound 305]
“++++” (≥75% = ++++)

Give the value of Peptide exchange reported for the following: 211 (LLWPGAALL; listed as Homo sapiens) [compound 211]
“++” (≥20% = ++)

Give the value of Peptide exchange reported for the following: 313 (VLFDDELLMV; listed as Homo sapiens) [compound 313]
“+++” (≥50 = +++)

Give the value of Peptide exchange reported for the following: 209 (KLIESKHEV; listed as Homo sapiens) [compound 209]
“++” (≥20% = ++)

Give the value of Peptide exchange reported for the following: 529 (LLADELITV; listed as Homo sapiens) [compound 529]
“+++” (≥50 = +++)

Give the value of Peptide exchange reported for the following: 527 (FLLEPGNLEV; listed as Homo sapiens) [compound 527]
“++++” (≥75% = ++++)

Give the value of Peptide exchange reported for the following: 229 (RLPGPLGTV; listed as Homo sapiens) [compound 229]
“++” (≥20% = ++)

Give the value of Peptide exchange reported for the following: 115 (AIAGAGILYGV; listed as Homo sapiens) [compound 115]
“++” (≥20% = ++)

Give the value of Peptide exchange reported for the following: 311 (RLYTGMHTV; listed as Homo sapiens) [compound 311]
“+++” (≥50 = +++)
